Where do the numbers come from? From paper PMC9142922.

# test.name: Ex vivo permeation across excised rat small intestine (non-everted intestinal sac)
# Assay type: in vitro ADME, male Wistar rats
# stated.conditions: compound filled into the sac, 5 mg/Kg in PBS + methocel 3%, 37 °C, 2 h, rat duodenum
# Protocol: The permeability of the galactosylated prodrugs and the parent drugs through the rat small intestine was assessed ex vivo using the non-everted intestinal sac method. […] An evaluation of ex vivo absorption was carried out using permeation measurements in excised rat small intestines, as previously published, with some modifications. […] The concentration in the incubation buffer was quantified via RP-HPLC, as reported above. […]
endpoint.label: Fraction Absorbed (Fa) ± SE, Duodenum

compound | Fraction Absorbed (Fa) ± SE, Duodenum
COc1ccc2c(c1)c(CC(=O)O)c(C)n2C(=O)c1ccc(Cl)cc1 [Indomethacin, indomethacin, reference compound] | 0.040
CC(C)Cc1ccc(C(C)C(=O)OC[C@H]2OC(O)[C@H](O)[C@@H](O)[C@H]2O)cc1 (some centres unmarked) | 0.013
CC(C)Cc1ccc(C(C)C(=O)O)cc1 (centres unmarked) [Ibuprofen, ibuprofen, reference compound] | 0.94

A. CC(C(=O)O)c1ccc(-c2ccccc2)c(F)c1 (centres unmarked) [Flurbiprofen, flurbiprofen, reference compound]
B. CC(C(=O)OC[C@H]1OC(O)[C@H](O)[C@@H](O)[C@H]1O)c1ccc(-c2ccccc2)c(F)c1 (some centres unmarked)
Q: Looking only at measured Fraction Absorbed (Fa) ± SE, Duodenum, which entry is lower, A or B ? The response must carry the label of the picked entry.
Result: B

* * *

# test.name: Stability in human serum at 37 °C
# stated.conditions: unmodified incubated compound, 200 µM, 37 °C, 24 h, mean ± SD
endpoint.label: Stability at 37 °C, % compound after 24 h of incubation, Human Serum (%)

compound | observed.measurement
CC(C)Cc1ccc(C(C)C(=O)OC[C@H]2OC(O)[C@H](O)[C@@H](O)[C@H]2O)cc1 (stereo partly shown) | 54.1

I. CC(C(=O)OC[C@H]1OC(O)[C@H](O)[C@@H](O)[C@H]1O)c1ccc(-c2ccccc2)c(F)c1 (stereo partly shown)
II. COc1ccc2c(c1)c(CC(=O)OC[C@H]1OC(O)[C@H](O)[C@@H](O)[C@H]1O)c(C)n2C(=O)c1ccc(Cl)cc1 (stereo partly shown)
Q: // select label with min value of measured Stability at 37 °C, % compound after 24 h of incubation, Human Serum from [ I , II ] Bench note: the answer is the label of the chosen record.
Result: I
(I: 57.3%, II: 82.3%)

* * *

# test.name: Solubility assay at 25 °C (RP-HPLC)
# Assay type: physicochemical
# stated.conditions: aqueous buffer, thermodynamic from solid; PBS pH 7.4 50 mM, 25 °C; read-out: Solubility at 25 °C, PBS pH 7.4
endpoint.label: solubility at 6 h (µM)

For orientation, consider the following solved cases.
compound | solubility at 6 h / µM
COc1ccc2c(c1)c(CC(=O)O)c(C)n2C(=O)c1ccc(Cl)cc1 [Indomethacin, indomethacin, reference compound] | 2250
CC(C(=O)OC[C@H]1OC(O)[C@H](O)[C@@H](O)[C@H]1O)c1ccc(-c2ccccc2)c(F)c1 (stereo partly drawn) | 1010

a. CC(C)Cc1ccc(C(C)C(=O)O)cc1 (stereo not drawn) [Ibuprofen, ibuprofen, reference compound]
b. CC(C)Cc1ccc(C(C)C(=O)OC[C@H]2OC(O)[C@H](O)[C@@H](O)[C@H]2O)cc1 (stereo partly drawn)
c. CC(C(=O)O)c1ccc(-c2ccccc2)c(F)c1 (stereo not drawn) [Flurbiprofen, flurbiprofen, reference compound]
d. COc1ccc2c(c1)c(CC(=O)OC[C@H]1OC(O)[C@H](O)[C@@H](O)[C@H]1O)c(C)n2C(=O)c1ccc(Cl)cc1 (stereo partly drawn)
Q: Output the entries ranked by solubility at 6 h from maximum down to minimum. As an answer, provide the labels arranged in the order called for.
Result: a, c, b, d

* * *

# Test system: NSAID-induced gastric damage in mice
# test.name: Ulcerogenicity study (gastric lesion score)
# Type: in vivo, CD1 mice
# stated.conditions: fasted mice, oral, parent 10 mg/kg or equimolecular prodrug, 4 h after treatment; score 0 irritation, 1 lesions 1-2 mm, 2 lesions 2-3 mm, 3 lesions >3 mm
Marks after values point to notes of the source that are not given here.
Reported Gastric Lesion Score (4 h) is given for each of the following compounds.

Field: example entries. Status: answers known.
compound | measured.on | endpoint.label | observed.measurement
CC(C(=O)OC[C@H]1OC(O)[C@H](O)[C@@H](O)[C@H]1O)c1ccc(-c2ccccc2)c(F)c1 (stereo partly drawn) [FluGAL] | NSAID-induced gastric damage in mice | Gastric Lesion Score (4 h) | 0 **
CC(C)Cc1ccc(C(C)C(=O)OC[C@H]2OC(O)[C@H](O)[C@@H](O)[C@H]2O)cc1 (stereo partly drawn) [IbuGAL] | NSAID-induced gastric damage in mice | Gastric Lesion Score (4 h) | 0 **
CC(C(=O)O)c1ccc(-c2ccccc2)c(F)c1 (stereo not drawn) [Flurbiprofen, flurbiprofen, reference compound] | NSAID-induced gastric damage in mice | Gastric Lesion Score (4 h) | 2 ^##

Q: GET /values?readout=Gastric Lesion Score (4 h)&item= COc1ccc2c(c1)c(CC(=O)O)c(C)n2C(=O)c1ccc(Cl)cc1 [Indomethacin, indomethacin, reference compound]
Result: 3 ^####

Q: Any idea what its Gastric Lesion Score (4 h) is? The compound is COc1ccc2c(c1)c(CC(=O)OC[C@H]1OC(O)[C@H](O)[C@@H](O)[C@H]1O)c(C)n2C(=O)c1ccc(Cl)cc1 (stereo partly drawn) [IndoGAL]
Result: 0 ****

Q: Which value of Gastric Lesion Score (4 h) has been reported for CC(C)Cc1ccc(C(C)C(=O)O)cc1 (stereo not drawn) [Ibuprofen, ibuprofen, reference compound] in the records?
Result: 2 ^##

* * *

# test.name: Ex vivo permeation across excised rat small intestine (non-everted intestinal sac)
# Type: in vitro ADME, male Wistar rats
# stated.conditions: compound filled into the sac, 5 mg/Kg in PBS + methocel 3%, 37 °C, 2 h, rat ileum
endpoint.label: Fraction Absorbed (Fa) ± SE, Ileum

Worked set:
molecule | observed.measurement
CC(C(=O)O)c1ccc(-c2ccccc2)c(F)c1 (centres unmarked) [Flurbiprofen, flurbiprofen, reference compound] | 0.57
CC(C(=O)OC[C@H]1OC(O)[C@H](O)[C@@H](O)[C@H]1O)c1ccc(-c2ccccc2)c(F)c1 (some centres unmarked) | 0.033

I. CC(C)Cc1ccc(C(C)C(=O)OC[C@H]2OC(O)[C@H](O)[C@@H](O)[C@H]2O)cc1 (some centres unmarked)
II. CC(C)Cc1ccc(C(C)C(=O)O)cc1 (centres unmarked) [Ibuprofen, ibuprofen, reference compound]
III. COc1ccc2c(c1)c(CC(=O)O)c(C)n2C(=O)c1ccc(Cl)cc1 [Indomethacin, indomethacin, reference compound]
Q: Rank the items in ascending order with respect to Fraction Absorbed (Fa) ± SE, Ileum. To answer, arrange all of the labels according to the requested order.
Result: I, III, II
(I: 0.031, III: 0.094, II: 0.98)

* * *

# test.name: Chemical stability in SGF (pH 1.2) and PBS (pH 7.4) at 37 °C
# Format: physicochemical
# stated.conditions: unmodified incubated compound, 100 µM, PBS pH 7.4, 37 °C, mean ± SD
endpoint.label: Stability at 37 °C, % compound after 24 h of incubation, PBS pH 7.4

compound | observed.measurement
CC(C)Cc1ccc(C(C)C(=O)O)cc1 (stereo not drawn) [Ibuprofen, ibuprofen, reference compound] | stable
COc1ccc2c(c1)c(CC(=O)O)c(C)n2C(=O)c1ccc(Cl)cc1 [Indomethacin, indomethacin, reference compound] | stable
CC(C(=O)O)c1ccc(-c2ccccc2)c(F)c1 (stereo not drawn) [Flurbiprofen, flurbiprofen, reference compound] | stable
